# target.or.system: hSK1 (Homo sapiens, UniProt Q92952)
# Construct: expressed in transfected cells; host or cells: Xenopus oocytes injected with in vitro transcribed mRNA
# procedure.text: Macroscopic currents in inside-out macropatches excised from Xenopus oocytes expressing hSK1
# Assay type: cell-based
# test.conditions: Hill fit; read-out: Kd for calcium, hSK1
value.kind: pKd
The value called pKd is obtained by taking minus log10 of the concentration in mol/L.

Query: Recall the reported pKd of [Ca+2] when tested on hSK1 (Homo sapiens, UniProt Q92952).
Response: 6.15

---

# target.or.system: rSK2 (Rattus norvegicus, UniProt P70604)
# Construct: expressed in transfected cells; host or cells: Xenopus oocytes injected with in vitro transcribed mRNA
# procedure.text: Macroscopic currents in inside-out macropatches excised from Xenopus oocytes expressing rSK2
# Assay type: cell-based
# test.conditions: slope conductance at reversal potential versus calcium, Hill fit, 8 patches; read-out: average Kd for calcium, rSK2
value.kind: pKd
The scale used: pKd is minus the common logarithm of the concentration in molar units.

Query: // Input: [Ca+2] [calcium] . Output its pKd only.
Response: 6.20

---

# target.or.system: hIK1 (Homo sapiens)
# procedure.text: Macroscopic hIK1 currents in macropatches excised from Xenopus oocytes
# test.conditions: normalized current versus Ca2+ concentration, n=7; read-out: K0.5 (concentration for half-maximal activation), hIK1
# Description: 3B. Example 3B describes the electrophysiology of the hIK1 channel. […] In vitro mRNAs were generated using SP6 polymerase (GibcoBRL); following synthesis, mRNAs were evaluated spectrophotometrically and by ethidium bromide staining after agarose gel electrophoresis. […] Inside-out macropatches were excised into an intracellular solution containing 116 mM K-gluconate. […] Values were expressed as mean±SD. […]
value.kind: EC50 (µM)
# unit: µM | format: bare number

Query: Check the records and state EC50 for [Ca+2]
Response: 0.32

---

# target.or.system: rSK2 (Rattus norvegicus)
# Construct: expressed in transfected cells; host or cells: Xenopus oocytes injected with in vitro transcribed mRNA
# procedure.text: Macroscopic currents in inside-out macropatches excised from Xenopus oocytes expressing rSK2
# Format: cell-based
# test.conditions: 5 μM Ca2+, inside-out macropatches, dTC in patch pipette; read-out: Kd for block of rSK2 currents
value.kind: Kd (nM)
Express the result in nM but write the number alone.

Query: Read the entry COc1cc2c3cc1Oc1cc(ccc1O)C[C@@H]1c4c(cc(OC)c(O)c4Oc4ccc(cc4)C[C@@H]3N(C)CC2)CC[N+]1(C)C [dTC, d-tubocurare, reference compound] and write its reported Kd.
Response: 2400

---

# target.or.system: hSK1 (Homo sapiens)
# Construct: expressed in transfected cells; host or cells: Xenopus oocytes injected with in vitro transcribed mRNA
# procedure.text: Macroscopic currents in inside-out macropatches excised from Xenopus oocytes expressing hSK1
# Assay type: cell-based
# test.conditions: read-out: Kd for block of hSK1
value.kind: Kd (µM)
Your answer is read as µM, so omit the unit and give the number.

Query: Determine from records and report Kd for COc1cc2c3cc1Oc1cc(ccc1O)C[C@@H]1c4c(cc(OC)c(O)c4Oc4ccc(cc4)C[C@@H]3N(C)CC2)CC[N+]1(C)C [dTC, d-tubocurare, reference compound]
Response: 76.2
